# Test system: NCI-H322M multicellular tumor spheroids, viability (% test/control)
# assay-comment: Anticancer human tumor NCI-H322M cell line growth inhibition
# settings: curve of first compound; second compound 30 pM
pIC50: −log10 of the molar value.
recorded-endpoint: pIC50

Illustrative cases are given below, each with its answer.
| compound | experimental-system | recorded-endpoint | reported-measurement |
| --- | --- | --- | --- |
| Cn1ncnc1[C@H]1c2n[nH]c(=O)c3cc(F)cc(c23)N[C@@H]1c1ccc(F)cc1 + COc1cc2c(cc1O)CCNC21CSC2c3c(OC(C)=O)c(C)c4c(c3C(COC1=O)N1C(O)C3Cc5cc(C)c(OC)c(O)c5C(C21)N3C)OCO4 | NCI-H322M multicellular tumor spheroids, viability (% test/control) | pIC50 | < 5.52 |
| CNCc1ccc(-c2cc(-c3nc(-c4ccc(S(=O)(=O)C(C)C)cc4)cnc3N)on2)cc1 + COc1cc2c(cc1O)CCNC21CSC2c3c(OC(C)=O)c(C)c4c(c3C(COC1=O)N1C(O)C3Cc5cc(C)c(OC)c(O)c5C(C21)N3C)OCO4 | NCI-H322M multicellular tumor spheroids, viability (% test/control) | pIC50 | < 5.52 |
| COc1cc(C)[nH]c(=O)c1CN1CCc2c(Cl)cc(C(OC)C3COC3)c(Cl)c2C1=O (centres undefined) + COc1cc2c(cc1O)CCNC21CSC2c3c(OC(C)=O)c(C)c4c(c3C(COC1=O)N1C(O)C3Cc5cc(C)c(OC)c(O)c5C(C21)N3C)OCO4 | NCI-H322M multicellular tumor spheroids, viability (% test/control) | pIC50 | < 5.00 |

Sure, the documented pIC50 for CC(C)n1c(=O)n(C)c2cnc3cc(F)c(-c4ccc(OCCCN5CCCCC5)nc4)cc3c21 + COc1cc2c(cc1O)CCNC21CSC2c3c(OC(C)=O)c(C)c4c(c3C(COC1=O)N1C(O)C3Cc5cc(C)c(OC)c(O)c5C(C21)N3C)OCO4 is < 5.00

---

Each entry below lists one item and its recorded viability, T/C value.
# System: NCI-H322M multicellular tumor spheroids, viability (% test/control)
# assay-comment: Anticancer human tumor NCI-H322M cell line growth inhibition;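 for viability, T/C: spheroids exposed to compound for seven days before readout; 100% = DMSO vehicle control wells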
# settings: second compound 0.000949 µM; first compound 10 µM; stronger effect = lower value
Provide the reading as a plain figure in %.

| compound | viability, T/C [%] |
| --- | --- |
| Cc1cc(C)c(CNC(=O)c2cc(-c3ccc(CN4CCOCC4)cc3)cc3c2cnn3C2CCCC2)c(=O)[nH]1 + COc1cc2c(cc1O)CCNC21CSC2c3c(OC(C)=O)c(C)c4c(c3C(COC1=O)N1C(O)C3Cc5cc(C)c(OC)c(O)c5C(C21)N3C)OCO4 | 97.8 |

Alright, here's another compound for you.
Sure, the documented viability, T/C for CC(C)n1c(=O)n(C)c2cnc3cc(F)c(-c4ccc(OCCCN5CCCCC5)nc4)cc3c21 + COc1cc2c(cc1O)CCNC21CSC2c3c(OC(C)=O)c(C)c4c(c3C(COC1=O)N1C(O)C3Cc5cc(C)c(OC)c(O)c5C(C21)N3C)OCO4 is 57.1

---

# System: NCI-H322M multicellular tumor spheroids, viability (% test/control)
# assay-comment: Anticancer human tumor NCI-H322M cell line growth inhibition
# settings: curve of compound
pIC50: −log10 of the molar value.
recorded-endpoint: pIC50

| compound | experimental-system | pIC50 |
| --- | --- | --- |
| CNCc1ccc(-c2cc(-c3nc(-c4ccc(S(=O)(=O)C(C)C)cc4)cnc3N)on2)cc1 | NCI-H322M multicellular tumor spheroids, viability (% test/control) | < 5.52 |

Entry CC(C)n1c(=O)n(C)c2cnc3cc(F)c(-c4ccc(OCCCN5CCCCC5)nc4)cc3c21 , tested on NCI-H322M multicellular tumor spheroids, viability (% test/control), has a reported pIC50 of < 5.00

Entry COc1cc(C)[nH]c(=O)c1CN1CCc2c(Cl)cc(C(OC)C3COC3)c(Cl)c2C1=O (centres undefined) , tested on NCI-H322M multicellular tumor spheroids, viability (% test/control), has a reported pIC50 of < 5.00

Entry Cc1sc2c(c1C)C(c1ccc(Cl)cc1)=NC(CC(=O)Nc1ccc(O)cc1)c1nnc(C)n1-2 (centres undefined) , tested on NCI-H322M multicellular tumor spheroids, viability (% test/control), has a reported pIC50 of < 5.52
